Data provenance: paper PMC2730633

- Tested Target: Tel-Src (Homo sapiens, UniProt P12931+P41212)
- Sequence (P12931 270-523 limits assumed, one chain of several): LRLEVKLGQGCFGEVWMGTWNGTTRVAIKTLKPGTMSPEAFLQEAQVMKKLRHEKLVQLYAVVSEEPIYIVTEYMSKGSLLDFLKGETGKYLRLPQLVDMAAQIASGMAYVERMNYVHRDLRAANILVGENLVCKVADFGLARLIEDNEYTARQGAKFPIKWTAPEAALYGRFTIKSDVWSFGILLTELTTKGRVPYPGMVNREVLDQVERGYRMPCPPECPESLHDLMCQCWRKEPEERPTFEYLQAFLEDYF
- Protocol: Tyrosine kinase transformed Ba/F3 cellular assay
Readout Type: EC50

Given the molecule `CCN1CCN(Cc2ccc(NC(=O)c3ccc(C)c(NC(=O)c4cncc(-c5cccs5)c4)c3)cc2C(F)(F)F)CC1` , what is its reported EC50? < 0.5 µM

* * *

- Tested Target: Bcr-Abl (Homo sapiens, UniProt P00519+P11274)
- Sequence (P00519 28-1130 limits assumed, one chain of several): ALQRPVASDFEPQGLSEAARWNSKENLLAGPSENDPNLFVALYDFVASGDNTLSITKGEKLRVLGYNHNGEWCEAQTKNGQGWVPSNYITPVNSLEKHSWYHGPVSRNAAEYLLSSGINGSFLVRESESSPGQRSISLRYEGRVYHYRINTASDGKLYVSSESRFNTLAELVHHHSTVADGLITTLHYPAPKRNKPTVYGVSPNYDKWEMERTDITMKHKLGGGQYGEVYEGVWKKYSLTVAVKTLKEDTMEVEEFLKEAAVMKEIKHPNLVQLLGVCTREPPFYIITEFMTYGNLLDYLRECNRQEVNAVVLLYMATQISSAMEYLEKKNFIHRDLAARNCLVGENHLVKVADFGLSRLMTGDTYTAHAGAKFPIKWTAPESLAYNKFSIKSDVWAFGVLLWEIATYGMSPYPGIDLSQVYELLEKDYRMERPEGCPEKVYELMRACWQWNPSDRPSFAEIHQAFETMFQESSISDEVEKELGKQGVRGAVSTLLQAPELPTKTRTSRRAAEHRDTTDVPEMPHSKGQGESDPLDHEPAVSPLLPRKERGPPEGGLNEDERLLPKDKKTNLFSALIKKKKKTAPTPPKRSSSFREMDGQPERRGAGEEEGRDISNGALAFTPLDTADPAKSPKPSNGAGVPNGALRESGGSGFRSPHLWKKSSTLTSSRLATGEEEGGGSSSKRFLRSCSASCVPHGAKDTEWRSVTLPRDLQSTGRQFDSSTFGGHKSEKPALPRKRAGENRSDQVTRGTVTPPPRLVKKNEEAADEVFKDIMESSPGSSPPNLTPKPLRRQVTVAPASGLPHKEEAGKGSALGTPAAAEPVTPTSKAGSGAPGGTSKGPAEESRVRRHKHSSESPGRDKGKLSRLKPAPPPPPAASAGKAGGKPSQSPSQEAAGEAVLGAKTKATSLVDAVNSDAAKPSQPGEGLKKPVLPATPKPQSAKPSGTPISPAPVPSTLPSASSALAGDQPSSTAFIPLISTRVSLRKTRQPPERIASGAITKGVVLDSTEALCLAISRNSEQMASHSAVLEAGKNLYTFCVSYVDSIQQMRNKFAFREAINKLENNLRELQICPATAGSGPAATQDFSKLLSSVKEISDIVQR
- Protocol: Tyrosine kinase transformed Ba/F3 cellular assay
- Recorded Conditions: Ba/F3 cells transformed with Bcr-Abl
pEC50: −log10 of the molar value.
Readout Type: pEC50

Please provide the recorded pEC50 for `CCN1CCN(Cc2ccc(NC(=O)c3ccc(C)c(NC(=O)c4cncc(-c5cccs5)c4)c3)cc2C(F)(F)F)CC1` , tested on Bcr-Abl (Homo sapiens, UniProt P00519+P11274). > 6.30
